Biological target: GPR139 (Homo sapiens)
Test: GPR139 Agonist titration / agonist counterscreen assay (calcium detection, HEK-GPR139 cells)
Format: cell-based
Parameters: expressed in transfected cells; host or cells: HEK Aequorin cells, Maxcyte transient transfection
Settings: GPR139 Agonist Activity
Rule: Lipophilic Efficiency (logD) below 3 gives Fulfilled, anything at or above gives Not fulfilled.

compound: COc1ccc2cc(C3(C)CC(=O)N(CC(=O)N(CC(C)C)CC(C)C)C3=O)ccc2c1 (centres unmarked)
assay_system: GPR139 (Homo sapiens)
answer_label: Fulfilled
--
compound: CCOc1ccccc1NC(=O)CN1C(=O)NC(C)(c2ccc(Cl)cc2Cl)C1=O (centres unmarked)
assay_system: GPR139 (Homo sapiens)
answer_label: Fulfilled
--
compound: O=C(CCc1ccccc1)NNC(=O)C12CC3CC(CC(C3)C1)C2
assay_system: GPR139 (Homo sapiens)
answer_label: Not fulfilled
--
compound: CS(=O)(=O)c1cccc(C(=O)NCCCN2CCc3ccccc32)c1
assay_system: GPR139 (Homo sapiens)
answer_label: Not fulfilled
--
compound: O=C(COc1ccc2ccccc2c1)NNC(=O)c1cccc([N+](=O)[O-])c1
assay_system: GPR139 (Homo sapiens)
answer_label: Not fulfilled
--
compound: CCn1c2ccccc2c2cc(C3C(C#N)=C(N)Oc4n[nH]c(C)c43)ccc21 (centres unmarked)
assay_system: GPR139 (Homo sapiens)
answer_label: Fulfilled

Then this compound:
Lookup: For this compound, is Lipophilic Efficiency (logD) lower than 3? CC(Oc1ccccc1)C(=O)NCCn1ccc2ccccc21 (centres unmarked)
Found: Fulfilled

---

Below: a set of entries, each annotated with reported pEC50.
Target: GPR139 (Homo sapiens)
Assay: GPR139 Agonist titration / agonist counterscreen assay (calcium detection, HEK-GPR139 cells)
Assay type: cell-based
Design: expressed in transfected cells; host or cells: HEK Aequorin cells, Maxcyte transient transfection
Details: agonist counterscreen of the antagonists; scientific notation, molarity; read-out: GRP139 Agonist activity EC50
pEC50: −log10 of the molar value.

Below: 5 molecules and their reported pEC50.
molecule: O=C(CSc1nc(-c2ccccc2)cn1-c1ccccc1)Nc1ccc(F)cc1 [SR-01000555394]
pEC50: < 4.84
//
molecule: Cc1cccc(NC(=O)CCC(=O)OCc2ccc(Br)cc2)c1 [SR-01000258561]
pEC50: < 4.85
//
molecule: Cc1ccc(-n2cc(-c3ccccc3)nc2SCC(=O)Nc2ccc(F)cc2)cc1 [SR-01000555461]
pEC50: < 4.85
//
molecule: Cc1ccc(-n2cc(-c3ccccc3)nc2OCC(=O)Nc2ccccc2C)cc1 [SR-01000555462]
pEC50: < 4.96
//
molecule: Cc1ccc(Oc2ccc(OCC(=O)N3C(C)CCCC3C)cc2)cc1 (stereo not drawn) [SR-01000445554]
pEC50: < 4.87

Lookup: Any idea what its pEC50 is? The molecule is Cc1cc(C(=O)N/N=C/c2cn(Cc3ccccc3)c3ccccc23)n[nH]1 [SR-01000110742]
Found: < 4.85

Lookup: Given the molecule COc1ccc(-c2noc(CN3CCCN(c4ccc(F)cc4)CC3)n2)c(OC)c1OC [SR-01000169333] , what is its reported pEC50?
Found: < 4.85

Lookup: // lookup pEC50 for Brc1ccc2[nH]cc(-c3nnc4ccc5ccccc5n34)c2c1 [SR-01000524226]
Found: < 4.88

Lookup: Entry under review: N#CCC(=O)c1ccccc1Oc1ccc(F)cc1 [SR-01000308363] . Reported pEC50?
Found: < 4.84

---

Target: GPR139 (Homo sapiens, UniProt Q6DWJ6)
Assay: GPR139 Agonist titration / agonist counterscreen assay (calcium detection, HEK-GPR139 cells)
Type: cell-based
Set-up: expressed in transfected cells; host or cells: HEK Aequorin cells, Maxcyte transient transfection
Settings: GPR139 Agonist Activity; activity relative to known control
metric: Averaged Max % Response (±St. Dev.) (%)
Output spec: scalar in %, unitless text.

Some compounds with known Averaged Max % Response (±St. Dev.) results, for comparison:
compound: CCCN1C(=O)CCc2cc(NC(=O)NCCc3ccc(OC)cc3)ccc21
metric: Averaged Max % Response (±St. Dev.)
meas_value: 74.00

compound: O=C(O)c1ccccc1C(=O)c1cccc2ccccc12
metric: Averaged Max % Response (±St. Dev.)
meas_value: 104.57

compound: O=C(CN1C(=O)NC2(CCc3ccccc3C2)C1=O)Nc1cccc2ccccc12 (centres unmarked)
metric: Averaged Max % Response (±St. Dev.)
meas_value: 74.83

Lookup: Give its Averaged Max % Response (±St. Dev.) value. Item: COc1ccc(CC(=O)NNC(=O)C(C)Oc2ccc(Cl)cc2Cl)cc1OC (centres unmarked)
Found: 81.17

Lookup: Please give the measured Averaged Max % Response (±St. Dev.) for this compound: Cc1nc(CNC(=O)CCC2(Cc3cccc4ccccc34)CCC(=O)N2)cs1 (centres unmarked)
Found: 99.15

---

Measured Lipophilic Efficiency (logD) by item
Target: GPR139 (Homo sapiens, UniProt Q6DWJ6)
Experiment: GPR139 Agonist titration / agonist counterscreen assay (calcium detection, HEK-GPR139 cells)
Type: cell-based
Design: expressed in transfected cells; host or cells: HEK Aequorin cells, Maxcyte transient transfection
Settings: GPR139 Agonist Activity
// keep it numeric: no unit symbol after the value

Field: example entries. Status: answers known.
compound: CN(C)c1ccc(NC(=O)Cn2cc(C=O)c3ccccc32)cc1 [SR-01000146281]
meas_value: 3.32

compound: Cc1ccc(CN2CCN(CC(=O)NCCc3ccc(Cl)cc3)C2=O)c(Cl)c1 [SR-01000125626]
meas_value: 2.72

compound: CC(=O)N1CCSc2cc(S(=O)(=O)NC3CCC(C)CC3)ccc21 (stereo not drawn) [SR-01000141798]
meas_value: 3.15

compound: Cc1nn(CC(=O)NC2CCCc3ccccc32)c(=O)c2c1sc1ccccc12 (stereo not drawn) [SR-01000139982]
meas_value: 2.38

compound: O=C(CCOc1ccccc1)NCC1COc2ccccc2O1 (stereo not drawn) [SR-01000479007]
meas_value: 4.24

Lookup: Which Lipophilic Efficiency (logD) is reported with GPR139 (Homo sapiens, UniProt Q6DWJ6) for this entry: Cc1ccc(NC(=O)CSC2=C(C#N)C(c3ccc(F)cc3)CC(=O)N2)c(C)c1 (stereo not drawn) [SR-01000484494] ?
Found: 1.82

Lookup: Request: Lipophilic Efficiency (logD), test system GPR139 (Homo sapiens, UniProt Q6DWJ6), entry O=C(CN1N=C(c2ccc(Cl)cc2)CCC1=O)NCCN1CCc2ccccc2C1 [SR-01000145135]
Found: 4.49

Lookup: Give recorded Lipophilic Efficiency (logD) with GPR139 (Homo sapiens, UniProt Q6DWJ6) for the following compound: O=C(CCc1nc2ccccc2s1)NNC(=O)CSc1ccccc1F [SR-01000069574]
Found: 3.68

Lookup: Lab note: need Lipophilic Efficiency (logD) with GPR139 (Homo sapiens, UniProt Q6DWJ6) for entry O=C(CN1CCCN(Cc2ccc(F)cc2Cl)C1=O)NC1CCCC1 [SR-01000146446] , please look it up.
Found: 4.40

---

// reported inhibition at 10 µM per item
Target: GPR139 (Homo sapiens)
Sequence (Q6DWJ6 1-353): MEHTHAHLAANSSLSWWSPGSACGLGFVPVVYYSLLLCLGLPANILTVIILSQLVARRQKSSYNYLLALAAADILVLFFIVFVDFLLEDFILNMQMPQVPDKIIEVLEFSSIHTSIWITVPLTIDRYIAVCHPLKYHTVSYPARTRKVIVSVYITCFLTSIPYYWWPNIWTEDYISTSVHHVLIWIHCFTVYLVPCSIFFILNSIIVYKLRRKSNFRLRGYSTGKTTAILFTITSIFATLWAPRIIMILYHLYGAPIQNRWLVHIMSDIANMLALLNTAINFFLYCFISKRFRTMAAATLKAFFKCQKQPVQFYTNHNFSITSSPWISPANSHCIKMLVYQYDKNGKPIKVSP
Experiment: [3H]JNJ-63533054 radioligand competition binding assay on membranes of HEK293T/17 cells
Set-up: HA signal peptide (HASP) (N); expressed in transfected cells; host or cells: HEK293T/17 cells (membrane preparation)
Settings: 10 μM of the indicated compound; (10 μM) JNJ-63533054 as printed in title
Give just the number in %; leave the unit off.

molecule: Nc1cccc(C(=O)Nc2cc(O)n(-c3c(Cl)cc(Cl)cc3Cl)n2)c1
inhibition at 10 µM (%): 21.8
--
molecule: COc1ccccc1CNC(=O)N1c2ccccc2Sc2ccccc21
inhibition at 10 µM (%): 103
--
molecule: CCOC(=O)C(CC)Oc1ccc2c(C)c(Cc3ccccc3)c(=O)oc2c1 (centres unmarked)
inhibition at 10 µM (%): 65
--
molecule: O=C(Nc1cccc(-c2nnco2)c1)C1c2ccccc2Oc2ccccc21
inhibition at 10 µM (%): 65.5

Shift focus to the following entry.
Lookup: Given the entry CCOC(=O)c1ccc2nc(C)c3c(c2c1)OC(C(C)(Cl)Br)C3 (centres unmarked) , report its measured inhibition at 10 µM.
Found: 77.8
